System: Bacteria
protocol_notes: Competitive inhibition of bacterial IMP1 using CENTA as substrate by UV/Vis multi-plate spectrophotometric method
value_type: Kic (µM)

Known Kic results, listed for orientation:
>>> df
                            molecule_smiles  value_type  measured_result
0  N#Cc1c(-c2ccccc2)c(-c2ccccc2)n(Cc2ccccc2)c1NC(=O)c1cccc([N+](=O)[O-])c1         Kic             23.7
1  Cc1cc(C)cc(C(=O)Nc2c(C#N)c(-c3ccccc3)c(-c3ccccc3)n2Cc2ccccc2)c1         Kic             20.2
2  N#Cc1c(-c2ccccc2)c(-c2ccccc2)n(Cc2ccccc2)c1N(C(=O)c1ccccc1)C(=O)c1ccccc1         Kic              468
3  N#Cc1c(-c2ccccc2)c(-c2ccccc2)n(Cc2ccccc2)c1NC(=O)c1ccccc1         Kic             10.7

1: N#Cc1c(-c2ccccc2)c(-c2ccccc2)n(Cc2ccccc2)c1NC(=O)c1ccc([N+](=O)[O-])cc1
2: N#Cc1c(-c2ccccc2)c(-c2ccccc2)n(Cc2ccccc2)c1N
Ask: Name the one with the greater Kic value, either 1 or 2 as given. Mark your answer with the label of the selected entry.
Reply: 2

###

System: Bacteria
protocol_notes: Inhibition of bacterial IMP1 at 10 uM using CENTA as substrate by UV/Vis multi-plate spectrophotometric method relative to control
value_type: inhibition (%)

Known inhibition results, listed for orientation:
>>> print(df.to_string())
                            molecule_smiles  measurement_units  measured_result
0      N#Cc1c(N)[nH]c(-c2ccccc2)c1-c1ccccc1                  %               12
1  N#Cc1c(-c2ccccc2)c(-c2ccccc2)n(-c2ccccc2)c1N                  %                0

P: CCCCCCCCCCCCCC(=O)N(C(=O)CCCCCCCCCCCCC)c1c(C#N)c(-c2ccccc2)c(-c2ccccc2)n1Cc1ccccc1
Q: N#Cc1c(-c2ccccc2)c(-c2ccccc2)n(CCCc2ccccc2)c1N
Ask: Please compare: P and Q . Report which one has the smaller inhibition value. Mark your answer with the label of the selected entry.
Reply: Q

1: NC(=O)c1c(-c2ccccc2)c(-c2ccccc2)n(Cc2ccccc2)c1N
2: N#Cc1c(-c2ccco2)c(-c2ccco2)n(Cc2ccccc2)c1N
3: N#Cc1c(-c2ccccc2)c(-c2ccccc2)n(CCc2ccccc2)c1N
4: N#Cc1c(-c2ccccc2)c(-c2ccccc2)n(Cc2ccccc2)c1NC(=O)c1cccc([N+](=O)[O-])c1
Ask: Order the records, beginning with the lowest inhibition and ending with the highest. As an answer, provide the labels arranged in the order called for.
Reply: 1, 3, 2, 4

###

Test system: Bacteria
protocol_notes: Inhibition of bacterial IMP1 at 10 uM using CENTA as substrate by UV/Vis multi-plate spectrophotometric method relative to control
value_type: inhibition (%)

Known inhibition results, listed for orientation:
>>> df
                            molecule_smiles  value_type  measured_result
0  CCCC(=O)Nc1c(C#N)c(-c2ccccc2)c(-c2ccccc2)n1Cc1ccccc1  inhibition               21
1  N#Cc1c(-c2ccccc2)c(-c2ccccc2)n(Cc2ccccc2)c1N  inhibition               26
2  CCCC(=O)N(C(=O)CCC)c1c(C#N)c(-c2ccccc2)c(-c2ccccc2)n1Cc1ccccc1  inhibition             17.1
3              Cc1c(C#N)c(N)n(Cc2ccccc2)c1C  inhibition              2.3
4  N#Cc1c(-c2ccccc2)c(-c2ccccc2)n(Cc2ccccc2)c1N(C(=O)c1ccc([N+](=O)[O-])cc1)C(=O)c1ccc([N+](=O)[O-])cc1  inhibition             20.2

A: Cc1cc(C)cc(C(=O)N(C(=O)c2cc(C)cc(C)c2)c2c(C#N)c(-c3ccccc3)c(-c3ccccc3)n2Cc2ccccc2)c1
B: N#Cc1c(-c2ccccc2)c(-c2ccccc2)n(Cc2ccccc2)c1N1C(=O)c2ccccc2C1=O
C: N#Cc1c(-c2ccccc2)c(-c2ccccc2)n(CCCCc2ccccc2)c1N
D: Cc1cc(C)cc(C(=O)Nc2c(C#N)c(-c3ccccc3)c(-c3ccccc3)n2Cc2ccccc2)c1
Ask: Order the records, beginning with the lowest inhibition and ending with the highest. As an answer, provide the labels arranged in the order called for.
Reply: C, A, B, D

Data provenance: ChEMBL document CHEMBL4118069
